Test system: P388
PROTOCOL_DETAILS: Average potency against P388 cells
Type: functional, Mus musculus
Assign AP to each entry below.
Response body: numeric value in µM, unit text excluded.

So, Cc1cccc(/C=C2\Cc3ccccc3C2=O)c1 ? Its AP was 42.9

Form: compound = O=C1CCCCC/C1=C\c1cccc(F)c1 ; AP = 34.5

O=C1/C(=C/c2cccc([N+](=O)[O-])c2)CCc2ccccc21 has a reported AP of 20.9

// recorded AP for O=C1/C(=C/c2cccc([N+](=O)[O-])c2)Cc2ccccc21 : 42.9

Reported AP for O=C1/C(=C/c2ccc(Cl)cc2)CCc2ccccc21 was 20.9

For reference, reported AP for O=C1/C(=C/c2cccc(F)c2)CCCc2ccccc21 stands at 11.2

Lab note: measured AP of O=C1/C(=C/c2cccc(Br)c2)CCc2ccccc21 was 20.9

Field AP (entry O=C1/C(=C/c2ccc(Br)cc2)Cc2ccccc21 ) reads 42.9
